Data provenance is ChEMBL document CHEMBL4651402.

test system: SARS-CoV-2; assay: microbe, parasite or virus in culture; conditions: Severe acute respiratory syndrome coronavirus 2, Vero C1008, 48 h
pIC50: −log10 of the molar value.
REPORTED PROPERTY: pIC50

Task: # pIC50 lookup, item COc1cc([C@@H]2c3cc4c(cc3[C@H](O)[C@H]3COC(=O)[C@H]23)OCO4)cc(OC)c1OC
Output: < 4.70

Task: # pIC50 lookup, item COc1cc(CC(C)N)c(OC)cc1C (stereo not given)
Output: < 4.70

Task: # pIC50 lookup, item CCCCn1ccc(N2CCC(c3ccccc3)CC2)c(Cl)c1=O
Output: < 4.70

Task: # pIC50 lookup, item COC(=O)C(N)CCCNC(=N)N[N+](=O)[O-] (stereo not given)
Output: < 4.70

Task: # pIC50 lookup, item O=c1[nH]cnc2nc[nH]c12
Output: < 4.70

Task: # pIC50 lookup, item Nc1nc(=S)c2ncn([C@@H]3O[C@H](CO)[C@@H](O)[C@H]3O)c2[nH]1
Output: < 4.70

Task: # pIC50 lookup, item CC12C=CC(=O)C=C1CCC1C2CCC2(C)C1CC[C@]2(C)O (stereo not given in full)
Output: < 4.70

Task: # pIC50 lookup, item CC(C(=O)Nc1ccc(Cl)cc1)[C@H]1CC[C@@H](c2ccnc3ccc(F)cc32)CC1 (stereo not given in full)
Output: < 4.70

More entries:
Task: # pIC50 lookup, item CN(C)CC(=O)O
Output: < 4.70

Task: # pIC50 lookup, item N[C@@H]1CONC1=O
Output: < 4.70
